Recorded pIC50, one value per entry.
- Target Desc: DNA gyrase subunit A (Mycobacterium tuberculosis)
- Sequence (P9WG47 whole entry): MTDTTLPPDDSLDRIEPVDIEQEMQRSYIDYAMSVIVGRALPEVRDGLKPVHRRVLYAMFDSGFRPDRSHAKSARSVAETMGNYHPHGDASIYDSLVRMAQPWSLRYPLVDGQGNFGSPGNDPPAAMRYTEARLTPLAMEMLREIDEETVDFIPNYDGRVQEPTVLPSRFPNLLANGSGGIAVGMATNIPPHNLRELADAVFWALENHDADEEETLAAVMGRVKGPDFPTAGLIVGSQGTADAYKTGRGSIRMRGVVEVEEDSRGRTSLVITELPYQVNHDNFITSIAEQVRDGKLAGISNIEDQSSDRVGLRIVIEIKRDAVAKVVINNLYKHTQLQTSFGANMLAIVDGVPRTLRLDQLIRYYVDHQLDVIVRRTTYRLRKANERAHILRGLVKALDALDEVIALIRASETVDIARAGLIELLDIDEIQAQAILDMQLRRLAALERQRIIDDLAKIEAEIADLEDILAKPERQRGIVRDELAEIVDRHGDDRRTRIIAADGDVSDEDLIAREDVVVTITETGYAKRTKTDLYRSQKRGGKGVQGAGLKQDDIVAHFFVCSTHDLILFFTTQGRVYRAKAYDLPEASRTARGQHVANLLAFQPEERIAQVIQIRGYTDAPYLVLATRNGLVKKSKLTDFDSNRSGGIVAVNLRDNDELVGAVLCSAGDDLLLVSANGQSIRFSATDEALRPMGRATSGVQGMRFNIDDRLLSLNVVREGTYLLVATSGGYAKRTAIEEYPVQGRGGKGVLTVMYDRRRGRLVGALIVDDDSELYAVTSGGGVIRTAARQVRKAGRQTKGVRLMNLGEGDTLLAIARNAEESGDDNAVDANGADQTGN
- Test Method Notes: Inhibition of DNA supercoiling activity of wild type Mycobacterium tuberculosis DNA gyrase A
pIC50: −log10 of the molar value.
Reported Endpoint: pIC50

C[C@H]1COc2c(N3CCN(C)CC3)c(F)cc3c(=O)c(C(=O)O)cn1c23 = 4.28
COc1c(N2CCNC(C)C2)c(F)cc2c(=O)c(C(=O)O)cn(C3CC3)c12 (stereo not drawn) = 5.03
COc1c(N2CC[C@@H](C(C)(C)N)C2)c(F)cc2c(=O)c3c(=O)[nH]sc3n(C3CC3)c12 = 5.54

* * *

Reported MIC by item:
- Test system: Mycobacterium tuberculosis
- Test Method Notes: Antimicrobial activity against pansusceptible Mycobacterium tuberculosis isolate 7
- Format: functional
Reported Endpoint: MIC (µg/mL)

CO[C@H]1/C=C/O[C@@]2(C)Oc3c(C)c(O)c4c(O)c(c(/C=N/N5CCN(C)CC5)c(O)c4c3C2=O)NC(=O)/C(C)=C\C=C\[C@H](C)[C@H](O)[C@@H](C)[C@@H](O)[C@@H](C)[C@H](OC(C)=O)[C@@H]1C [RIFAMPIN] = 0.004
NNC(=O)c1ccncc1 [ISONIAZID] = 0.06
COc1c(N2CC[C@@H](C(C)(C)N)C2)c(F)cc2c(=O)c3c(=O)[nH]sc3n(C3CC3)c12 = 0.06
COc1c(N2C[C@@H]3CCCN[C@@H]3C2)c(F)cc2c(=O)c(C(=O)O)cn(C3CC3)c12 [MOXIFLOXACIN] = 0.06

* * *

Listed here: items and their measured MIC.
- Test system: Mycobacterium tuberculosis
- Test Method Notes: Antimicrobial activity against Mycobacterium tuberculosis isolate 13 isolated from Beijing
- Type: functional
Reported Endpoint: MIC

COc1c(N2CC[C@@H](C(C)(C)N)C2)c(F)cc2c(=O)c3c(=O)[nH]sc3n(C3CC3)c12 = 0.06 µg/mL
NNC(=O)c1ccncc1 [ISONIAZID] = 0.125 µg/mL
CO[C@H]1/C=C/O[C@@]2(C)Oc3c(C)c(O)c4c(O)c(c(/C=N/N5CCN(C)CC5)c(O)c4c3C2=O)NC(=O)/C(C)=C\C=C\[C@H](C)[C@H](O)[C@@H](C)[C@@H](O)[C@@H](C)[C@H](OC(C)=O)[C@@H]1C [RIFAMPIN] = 0.002 µg/mL
COc1c(N2C[C@@H]3CCCN[C@@H]3C2)c(F)cc2c(=O)c(C(=O)O)cn(C3CC3)c12 [MOXIFLOXACIN] = 0.03 µg/mL

Provenance of the data: ChEMBL document CHEMBL1275259
